The measured values listed here are drawn from patent US20120129766A1.

TEST TARGET: T1, human β-klotho (human, UniProt Q86Z14 1-1044)
T1 sequence (looked up): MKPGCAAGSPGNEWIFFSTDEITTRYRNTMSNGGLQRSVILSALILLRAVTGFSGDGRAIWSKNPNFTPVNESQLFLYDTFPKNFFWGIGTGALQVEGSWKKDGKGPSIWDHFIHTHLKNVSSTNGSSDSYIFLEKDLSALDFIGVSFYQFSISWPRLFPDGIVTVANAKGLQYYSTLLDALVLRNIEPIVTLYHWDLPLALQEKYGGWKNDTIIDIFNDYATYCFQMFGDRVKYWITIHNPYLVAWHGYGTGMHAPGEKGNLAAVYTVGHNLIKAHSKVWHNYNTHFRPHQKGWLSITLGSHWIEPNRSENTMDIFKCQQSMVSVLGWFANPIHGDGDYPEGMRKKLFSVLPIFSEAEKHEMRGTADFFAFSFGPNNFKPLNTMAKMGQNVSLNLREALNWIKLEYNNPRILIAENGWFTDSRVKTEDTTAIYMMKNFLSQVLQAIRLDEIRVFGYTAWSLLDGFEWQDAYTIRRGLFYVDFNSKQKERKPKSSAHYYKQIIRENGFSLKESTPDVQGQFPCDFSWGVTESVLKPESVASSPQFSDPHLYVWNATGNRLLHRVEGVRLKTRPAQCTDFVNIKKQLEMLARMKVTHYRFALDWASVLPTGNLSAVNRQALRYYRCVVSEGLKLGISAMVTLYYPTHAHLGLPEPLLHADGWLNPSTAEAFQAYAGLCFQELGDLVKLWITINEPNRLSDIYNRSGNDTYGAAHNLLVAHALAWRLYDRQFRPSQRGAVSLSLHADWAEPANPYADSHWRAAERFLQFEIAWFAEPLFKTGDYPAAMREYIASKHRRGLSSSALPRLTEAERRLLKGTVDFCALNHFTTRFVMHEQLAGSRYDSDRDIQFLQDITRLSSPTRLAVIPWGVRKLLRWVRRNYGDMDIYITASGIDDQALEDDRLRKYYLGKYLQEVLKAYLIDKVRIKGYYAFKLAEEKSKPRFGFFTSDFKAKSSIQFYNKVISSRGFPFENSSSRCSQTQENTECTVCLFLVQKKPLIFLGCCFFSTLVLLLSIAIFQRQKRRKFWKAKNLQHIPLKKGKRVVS
ASSAY EXPLANATION: cell-based or functional assay
OBSERVABLE: EC50 (nM), pERK In Cell Western
// return numeric value only (unit: nM, not printed)

binder="hFGF21(33-209)-V14-pool1 (ligand) DSSPLLQFGGQVRQRYLYTDDAQETEAHLEIREDGTVGGAAHQSPESLLELKALKPGVIQILGVKTSRFLCQKPDGALYGSLHFDPEACSFRELLLENGYNVYQSEAHGLPLHLPGNRSPHRDPAPQGPARFLPLPGLPPALPEPPGILAPQPPDVGSSDPLAMVGPSQGRSPSYAS" observable="EC50 (nM), pERK In Cell Western" unit_spec=nM value_measured=6.7
binder="hFGF21(33-209)-V12 (ligand) DSSPLLQFGGQVRQRYLYTDDDQQTEAHLEIREDGTVGGAAHQSPESLLQLKALKPGVIQILGVQTSRFLCQKPDGALYGSLHFDPEACSFRELLLENGYNVYQSEAHGLPLHLPGNRSPHRDPAPQGPARFLPLPGLPPALPEPPGILAPQPPDVGSSDPLAMVGPSQGRSPSYAS" observable="EC50 (nM), pERK In Cell Western" unit_spec=nM value_measured=14
binder="hFGF21(33-209)-V14-pool2 (ligand) DSSPLLQFGGQVRQRYLYTDDAQETEAHLEIREDGTVGGAAHQSPESLLELKALKPGVIQILGVKTSRFLCQKPDGALYGSLHFDPEACSFRELLLEDGYNVYQSEAHGLPLHLPGNRSPHRDPAPQGPARFLPLPGLPPALPEPPGILAPQPPDVGSSDPLAMVGPSQGRSPSYAS" observable="EC50 (nM), pERK In Cell Western" unit_spec=nM value_measured=5.3

Fill in EC50 (nM), pERK In Cell Western for record hFGF21(33-209)-V57 (ligand) DSSPLLQFGGQVRQRYLYTDDAQQTEAHLEIREDGTVGGAAHQSPESLLQLKALKPGVIQILGVKASRFLCQRPDGALYGSLHFDPEACSFRELLLENGYNVYQSETHGLPLHLPGNRSPHRDPASQGPARFLPLPGLPPAPPEPPGILAPQPPDVGSSDPLAMVGPSQARSPSYAS
22

Fill in EC50 (nM), pERK In Cell Western for record hFGF21(33-209)-V85 (ligand) DSSPLLQFGGQVRQRYLYTDDAQQTEAHLEIREDGTVGGAAHQSPESLLELKALKPGVIQILGVKTSRFLCQKPDGALYGSLHFDPEACSFRELLLEEGYNVYQSEAHGLPLHLPGNRSPHCDPAPQGPARFLPLPGLPPALPEPPGILAPQPPDVGSSDPLAMVGPSQGRSPSYAS
2

Fill in EC50 (nM), pERK In Cell Western for record hFGF21(33-209)-V64 (ligand) DSSPLLQFGGQVRQRYLYTDDACQTEAHLEIREDGTVGGAADQSPESLLQLKALKPGVIQILGVKTSRFLCQRPDGTLYGSLHFDPEACSFRELLLENGYNVYQSETHGLPLHLPCNRSPHRDPASRGPARFLPLPGLPPAPPEPPGILAPQPPDVGSSDPLAMVGPSQARSPSYAS
2.9
